- System: SF-295 CNS
- test: NCI tumour cell line growth inhibition, 48 h
Collected log10 of TGI values appear next to each entry.
experimentalReadout: log10 of TGI (log10 of the value in µM)

compound | log10 of TGI
CC(/C=C/c1ccccc1)=N\NC(=S)N/N=C(C)/C=C/c1ccccc1 | 1.79
C[C@H]1[C@H]2[C@H](C[C@@]3(C)C4=CC[C@H]5C(C)(C)[C@@H](OC6OCC(O)C(O)C6O)CC[C@@]56C[C@@]46CC[C@]23C)O[C@@]2(O)[C@@H]1OC(C)(C)[C@H]2O (stereo not given in full) | 0.81
O=C1NC(c2cccc3ccccc23)Nc2ccc(Cl)cc21 (stereo not given) | -1.63
Cc1cc(N(CCC#N)CCC#N)ccc1/C(Sc1ccccc1)=C(\NC(=O)/C=C/c1ccccc1)C(=O)Sc1ccccc1 | 1.17
COC(=O)C1=C(N)C2=C(N)Oc3ccccc3C2CC1=C(C#N)C#N (stereo not given) | 1.96
O=[N+]([O-])c1ccc(C2=NOC(c3ccccc3)N2C23CC4CC(CC(C4)C2)C3)cc1 (stereo not given) | 1.82
COc1ccc(/C=C/C(=O)C(=O)/C=C/c2ccc(OC)c(OC)c2)cc1OC | 1.49
C=C(Cl)[C@](Cl)(CBr)CC[C@@H](Br)C(C)(C)Cl | 0.35
CC(O)C1(O)C(O)CC(OC2c3cc4c(c(O)c3[C@@H]3C[C@@]2(C)OC32C=c3cc[nH]c3=N2)C(=O)c2cccc(O)c2C4=O)OC1C (stereo not given in full) | 0.76

----------
- Tested on: NCI/ADR-RES ovarian
- test: NCI tumour cell line growth inhibition, 48 h

molecule | TGI
COc1cc(C(=O)/C=C/c2cccnc2Nc2ccc(Cl)cc2)cc(OC)c1OC | 4.4 µM
Fc1ccc(C2CC(c3cccc(Nc4ccncc4)c3)=NN2c2ccccc2)cc1 (stereo not given) | 3.13 µM
CC(=O)OC/C=C\Cn1ncc(=O)[nH]c1=O | 50.6 µM
Cc1ccc(/C=C(/C#N)n2nnc3cccc(F)c32)cc1 | 0.848 µM
CCOC(=O)/C1=C(\C)N(Cc2ccccc2)C(=O)c2ccccc2C(=O)c2c(OC(C)=O)ccc(OC(C)=O)c21 | > 100 µM

----------
Recorded TGI values for a group of compounds are listed next.
- Test system: ACHN renal
- test: NCI tumour cell line growth inhibition, 48 h
experimentalReadout: TGI

structureSmilesString | experimentalReadout | assayResult
C=CCc1cc(OC)c(O)c(C(=O)/C=C/c2ccc(OC)c(OC)c2)c1 | TGI | 45.9 µM
C=C(Cl)[C@](Cl)(CBr)CC[C@@H](Br)C(C)(C)Cl | TGI | 2.31 µM
CC(=O)OC[C@@]1(C)[C@@H]2[C@@H]3[C@@]4(CO[C@]3(C)C(=O)[C@@]3(OC(C)=O)C[C@H](C)[C@H](OC(C)=O)[C@@H]3[C@H]4OC(C)=O)[C@H](OC(=O)c3ccccc3)C[C@@H]21 | TGI | > 100 µM
O=C(Cc1csc2[n+]1C(=O)/C(=C/c1ccc(Cl)cc1)S2)Nc1ccccc1 | TGI | 61.6 µM

----------
TGI for assorted compounds
- System: MOLT-4 leukemia
- test: NCI tumour cell line growth inhibition, 48 h
experimentalReadout: TGI (µM)

compound | experimentalReadout | qualifier | assayResult
CN(C)CCNc1ncnc2nc(-c3ccccc3)c(-c3ccccc3)nc12 | TGI | = | 76
C=C(Cl)[C@](Cl)(CBr)CC[C@@H](Br)C(C)(C)Cl | TGI | = | 31.9
CCOP(=O)(OCC)C(Cc1c[nH]c2ccccc12)C(=O)O (configuration not stated) | TGI | > | 100
NC(=O)NC(=O)Nc1ccc(Br)cc1 | TGI | > | 100
CN1CCC(=C(c2ccc(Cl)cc2)c2ccccn2)CC1 | TGI | > | 100
C=C(CN(C)C)C(=O)c1ccccc1 | TGI | = | 15.3
CCc1cccc(C(C)C)c1NC(=O)C(=O)Nn1c(=S)[nH]c2ccccc2c1=O | TGI | > | 100

meta.source: PubChem BioAssay (NCI)
